# credit: patent US12331026B2

Subject of test: CDK2 (Homo sapiens, UniProt P24941)
Construct: endogenous in cells; host or cells: OVCAR3 cells
Assay comment: Phospho-RB measurement in OVCAR3 cells (HTRF phospho-RB S807/811)
Assay type: cell-based
Settings: phosphorylation of RB protein at S807/811, HTRF, 24 h compound treatment, 0.3 to 10,000 nM, read-out: pRb (uM)
Parameter measured: IC50 (µM)
Value expressed in µM; do not type the unit.

Query: Field request: IC50 | item: CS(=O)(=O)C1CCC(Nc2nccc(-c3sc(C45CC(Cl)(C4)C5)nc3-c3cccc(NS(=O)(=O)c4c(F)cccc4C(F)(F)F)c3F)n2)CC1 (stereo not drawn)
Response: 0.24

Query: Field request: IC50 | item: CN1CC2CCC1CN2c1nc(-c2cccc(NS(=O)(=O)c3c(F)cccc3F)c2F)c(-c2ccnc(NC3CC4(C3)CS(=O)(=O)C4)n2)s1 (stereo not drawn)
Response: 1.17

Query: Field request: IC50 | item: O=S1(=O)CC(N2CC3CCC(C2)N3c2nc(-c3cccc(NS(=O)(=O)c4c(F)cccc4F)c3F)c(-c3ccnc(NC4CC5(C4)CS(=O)(=O)C5)n3)s2)C1
Response: 4.14

Query: Field request: IC50 | item: O=S1(=O)CC2(CC(Nc3nccc(-c4sc(N5C6CCC5CN(CC(F)(F)F)C6)nc4-c4cccc(NS(=O)(=O)c5c(F)cccc5F)c4F)n3)C2)C1
Response: 0.13

Query: Field request: IC50 | item: O=S1(=O)CC2(CC(Nc3nccc(-c4sc(N5C6CCC5CN(C5CCOC5)C6)nc4-c4cccc(NS(=O)(=O)c5c(F)cccc5F)c4F)n3)C2)C1 (stereo not drawn)
Response: 0.66

Query: Field request: IC50 | item: O=S1(=O)CC2(CC(Nc3nccc(-c4sc(C56CCC(CC5)CC6)nc4-c4cccc(NS(=O)(=O)c5c(F)cccc5F)c4F)n3)C2)C1
Response: 0.055

Query: Field request: IC50 | item: O=S1(=O)CC2C(C1)C2Nc1nccc(-c2sc(C34CC(C3)C4)nc2-c2cccc(NS(=O)(=O)c3c(F)cccc3F)c2F)n1 (stereo not drawn)
Response: 0.04

Query: Field request: IC50 | item: O=S1(=O)C[C@@H]2[C@H](C1)[C@H]2Nc1nccc(-c2sc(C3(C(F)F)CC3)nc2-c2cccc(NS(=O)(=O)c3c(F)cccc3F)c2F)n1
Response: 0.13

Query: Field request: IC50 | item: COc1cccc(C(F)(F)F)c1S(=O)(=O)Nc1cccc(-c2nc(N3C4CCC3CN(C)C4)sc2-c2ccnc(NC3CC4(C3)CS(=O)(=O)C4)n2)c1F
Response: 0.63

Query: Field request: IC50 | item: CS(=O)(=O)[C@H]1CC[C@@H](Nc2nccc(-c3sc(C45CC(F)(C4)C5)nc3-c3cccc(NS(=O)(=O)c4c(F)cccc4C(F)(F)F)c3F)n2)CC1
Response: 0.077

Query: Field request: IC50 | item: O=S1(=O)C[C@@H]2[C@H](C1)[C@H]2Nc1nccc(-c2sc(N3C4CCC3CN(C3CC(F)(F)C3)C4)nc2-c2cccc(NS(=O)(=O)c3c(F)cccc3C(F)(F)F)c2F)n1
Response: 0.09

Query: Field request: IC50 | item: C[C@@H]1CN(C2CC(F)(F)C2)C[C@@H](C)N1c1nc(-c2cccc(NS(=O)(=O)c3c(F)cccc3F)c2F)c(-c2ccnc(NC3CC4(C3)CS(=O)(=O)C4)n2)s1
Response: 0.34
